- assay remarks: Chromatographic hydrophobicity index of compound at 250 uM at pH 7.4 by HPLC analysis
- Format: ADME
- run conditions: pH 7.4, 250 µM
measured quantity: CHI

>>> recorded_measurement("c1ccc2[nH]cnc2c1")
30.71
>>> recorded_measurement("CCCCCCC(=O)c1ccccc1")
111.8
>>> recorded_measurement("c1ccc2[nH]ccc2c1")
69.15
>>> recorded_measurement("NC(=O)N1c2ccccc2C=Cc2ccccc21 [CARBAMAZEPINE]")
58.45

---

- assay remarks: Retention time of compound at pH 7.4 by LC-UV analysis
- Assay type: physicochemical
- run conditions: buffer
Recorded Retention_time for the following compounds
measured quantity: Retention_time (min)

>>> recorded_measurement("Cn1c(=O)c2c(ncn2C)n(C)c1=O")
7.56
>>> recorded_measurement("O=C(/C=C/C=C/c1ccc2c(c1)OCO2)OCc1ccccc1")
12.46
>>> recorded_measurement("NC(=O)N1c2ccccc2C=Cc2ccccc21 [CARBAMAZEPINE]")
9.3
>>> recorded_measurement("COc1cc2c(c(OC)c1OC)-c1ccc(OC)c(=O)cc1[C@@H](NC(C)=O)CC2")
8.35
>>> recorded_measurement("CCCCC(=O)c1ccccc1")
12.04
>>> recorded_measurement("N#C/C(=C\\C=C\\c1ccc2c(c1)OCO2)C(=O)OCc1ccccc1")
12.11
>>> recorded_measurement("c1ccc2[nH]cnc2c1")
8
>>> recorded_measurement("CC(=O)Nc1ccc(O)cc1")
7.45
>>> recorded_measurement("c1ccc2[nH]ccc2c1")
10.27
>>> recorded_measurement("CCCCCCC(=O)c1ccccc1")
13.67
>>> recorded_measurement("CCC(=O)c1ccccc1")
10.63
>>> recorded_measurement("O=C(/C=C/C=C/c1ccc2c(c1)OCO2)N1CCCCC1")
10.61
>>> recorded_measurement("N#C/C(=C\\C=C\\c1ccc2c(c1)OCO2)C(=O)OCCc1ccccc1")
12.37
>>> recorded_measurement("CCCC(=O)c1ccccc1")
11.32
>>> recorded_measurement("Cn1c(=O)c2[nH]cnc2n(C)c1=O.O")
7.31

---

Items are presented alongside their recorded pIC50.
- assayed system: Amine oxidase [flavin-containing] B (Homo sapiens, UniProt P27338)
- Sequence (P27338 whole entry): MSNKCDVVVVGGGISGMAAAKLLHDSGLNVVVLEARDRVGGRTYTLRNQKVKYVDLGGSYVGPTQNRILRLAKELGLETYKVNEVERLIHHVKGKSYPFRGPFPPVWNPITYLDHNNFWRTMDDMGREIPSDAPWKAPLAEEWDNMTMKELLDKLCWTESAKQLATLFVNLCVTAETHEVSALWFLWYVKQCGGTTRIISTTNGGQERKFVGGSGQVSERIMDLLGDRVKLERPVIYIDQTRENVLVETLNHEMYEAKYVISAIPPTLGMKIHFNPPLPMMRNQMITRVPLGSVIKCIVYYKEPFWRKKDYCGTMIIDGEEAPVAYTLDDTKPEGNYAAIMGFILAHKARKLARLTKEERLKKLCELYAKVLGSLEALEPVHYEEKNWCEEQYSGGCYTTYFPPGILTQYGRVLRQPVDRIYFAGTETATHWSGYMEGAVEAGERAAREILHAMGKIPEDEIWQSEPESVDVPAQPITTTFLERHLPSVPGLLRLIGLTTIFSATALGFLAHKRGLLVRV
- assay remarks: biochemical
- Assay type: cell-based, BTI-TN-5B1-4
- Description: Inhibition of human microsomal MAO-B expressed in baculovirus infected BTI-TN-5B1-4 cells assessed as reduction in 4-hydroxyquinoline formation using kynuramine as substrate preincubated with substrate for 10 mins followed by enzyme addition by spectrophotometric analysis
pIC50: −log10 of the molar value.
measured quantity: pIC50

>>> recorded_measurement("N#C/C(=C\\C=C\\c1ccc2c(c1)OCO2)C(=O)Oc1ccccc1")
6.67
>>> recorded_measurement("O=C(/C=C/C=C/c1ccc2c(c1)OCO2)N1CCCCC1")
5.98
>>> recorded_measurement("N#C/C(=C\\C=C\\c1ccc2c(c1)OCO2)C(=O)N1CCCCC1")
6.84
>>> recorded_measurement("O=C(/C=C/C=C/c1ccc2c(c1)OCO2)Oc1ccccc1")
6.81
>>> recorded_measurement("O=C(/C=C/C=C/c1ccc2c(c1)OCO2)OCc1ccccc1")
6.78
>>> recorded_measurement("N#C/C(=C\\C=C\\c1ccc2c(c1)OCO2)C(=O)OCc1ccccc1")
7.32
>>> recorded_measurement("N#C/C(=C\\C=C\\c1ccc2c(c1)OCO2)C(=O)OCCc1ccccc1")
7.00
>>> recorded_measurement("N#C/C(=C\\C=C\\c1ccc2c(c1)OCO2)C(=O)NCc1ccccc1")
6.33
>>> recorded_measurement("O=C(/C=C/C=C/c1ccc2c(c1)OCO2)OCCc1ccccc1")
6.35

---

- assay remarks: Cytotoxicity against human SH-SY5Y cells assessed as lysosomal activity by measuring neutral red uptake at 50 uM incubated for 24 hrs followed by incubation with neutral red solution for 2 hrs by microplate reader analysis (reference value: >85%)
- Type: cell-based
- run conditions: read-out: Activity
measured quantity: viability at 24 h, 50 µM (%)

>>> recorded_measurement("O=C(/C=C/C=C/c1ccc2c(c1)OCO2)Oc1ccccc1")
59.4

---

- assay remarks: Chromatographic hydrophobicity index of compound at 250 uM at pH 7.4 by HPLC analysis
- Type: ADME
- run conditions: pH 7.4, 250 µM
measured quantity: CHI

>>> recorded_measurement("N#C/C(=C\\C=C\\c1ccc2c(c1)OCO2)C(=O)OCCc1ccccc1")
100.75
>>> recorded_measurement("CCCC(=O)c1ccccc1")
88.49
>>> recorded_measurement("Cn1c(=O)c2[nH]cnc2n(C)c1=O.O")
18.19
>>> recorded_measurement("COc1cc2c(c(OC)c1OC)-c1ccc(OC)c(=O)cc1[C@@H](NC(C)=O)CC2")
44.32
>>> recorded_measurement("O=C(/C=C/C=C/c1ccc2c(c1)OCO2)N1CCCCC1")
73.45
